EXPERIMENTAL_TARGET: TTR (Homo sapiens)
EXPERIMENT_DESCRIPTION: FITC-T4 TTR competitive binding assay
ASSAY_SETUP: IC20 of T4 / IC20 of compound (Equation 14)
# REP (relative potency compared to T4) listing for each entry below
Kindly provide the number alone.

# count of solved cases: 4
stdin: Please report REP (relative potency compared to T4) for the following molecule: O=S(=O)(O)C(F)(F)C(F)(F)C(F)(F)C(F)(F)C(F)(F)C(F)(F)F [PFHxS, perfluorohexane sulfonic acid]
stdout: 0.16

stdin: Please report REP (relative potency compared to T4) for the following molecule: CCCOC(=O)c1ccc(O)cc1 [Propylparaben, propyl 4-hydroxybenzoate]
stdout: 0.0039

stdin: Please report REP (relative potency compared to T4) for the following molecule: O=C(O)C(F)(F)C(F)(F)C(F)(F)C(F)(F)C(F)(F)C(F)(F)C(F)(F)C(F)(F)C(F)(F)F [PFDA, perfluorodecanoic acid]
stdout: 0.012

stdin: Please report REP (relative potency compared to T4) for the following molecule: O=C(O)C(F)(F)C(F)(F)C(F)(F)C(F)(F)C(F)(F)C(F)(F)C(F)(F)C(F)(F)F [PFNA, perfluorononanoic acid]
stdout: 0.059

Further cases:
stdin: Please report REP (relative potency compared to T4) for the following molecule: Oc1cc(Oc2ccc(Br)cc2Br)c(Br)cc1Br [5-OH-BDE-47, 5-OH-2,2ʹ,4,4ʹ-tetrabromodiphenyl ether]
stdout: 1.5

stdin: Please report REP (relative potency compared to T4) for the following molecule: Oc1cc(Br)cc(Br)c1Oc1ccc(Br)cc1Br [6-OH-BDE-47, 6-OH-2,2ʹ,4,4ʹ-tetrabromodiphenyl ether]
stdout: 0.68

stdin: Please report REP (relative potency compared to T4) for the following molecule: Clc1ccc(-c2cc(Cl)c(Cl)cc2Cl)cc1Cl [CB-118, 2,3ʹ,4,4ʹ,5-pentachlorobiphenyl]
stdout: 0.14

stdin: Please report REP (relative potency compared to T4) for the following molecule: O=C(O)C(F)(F)C(F)(F)C(F)(F)C(F)(F)C(F)(F)F [PFHxA, perfluorohexanoic acid]
stdout: 0.014

Cited source for all entries: paper PMC7015555
